Where these numbers come from: patent US20240044920A1

- TARGET DESC: T1, human ceruloplasmin (human, UniProt P00450 20-1065)
- T1 construct: also called CP; purified CP
- T1 sequence: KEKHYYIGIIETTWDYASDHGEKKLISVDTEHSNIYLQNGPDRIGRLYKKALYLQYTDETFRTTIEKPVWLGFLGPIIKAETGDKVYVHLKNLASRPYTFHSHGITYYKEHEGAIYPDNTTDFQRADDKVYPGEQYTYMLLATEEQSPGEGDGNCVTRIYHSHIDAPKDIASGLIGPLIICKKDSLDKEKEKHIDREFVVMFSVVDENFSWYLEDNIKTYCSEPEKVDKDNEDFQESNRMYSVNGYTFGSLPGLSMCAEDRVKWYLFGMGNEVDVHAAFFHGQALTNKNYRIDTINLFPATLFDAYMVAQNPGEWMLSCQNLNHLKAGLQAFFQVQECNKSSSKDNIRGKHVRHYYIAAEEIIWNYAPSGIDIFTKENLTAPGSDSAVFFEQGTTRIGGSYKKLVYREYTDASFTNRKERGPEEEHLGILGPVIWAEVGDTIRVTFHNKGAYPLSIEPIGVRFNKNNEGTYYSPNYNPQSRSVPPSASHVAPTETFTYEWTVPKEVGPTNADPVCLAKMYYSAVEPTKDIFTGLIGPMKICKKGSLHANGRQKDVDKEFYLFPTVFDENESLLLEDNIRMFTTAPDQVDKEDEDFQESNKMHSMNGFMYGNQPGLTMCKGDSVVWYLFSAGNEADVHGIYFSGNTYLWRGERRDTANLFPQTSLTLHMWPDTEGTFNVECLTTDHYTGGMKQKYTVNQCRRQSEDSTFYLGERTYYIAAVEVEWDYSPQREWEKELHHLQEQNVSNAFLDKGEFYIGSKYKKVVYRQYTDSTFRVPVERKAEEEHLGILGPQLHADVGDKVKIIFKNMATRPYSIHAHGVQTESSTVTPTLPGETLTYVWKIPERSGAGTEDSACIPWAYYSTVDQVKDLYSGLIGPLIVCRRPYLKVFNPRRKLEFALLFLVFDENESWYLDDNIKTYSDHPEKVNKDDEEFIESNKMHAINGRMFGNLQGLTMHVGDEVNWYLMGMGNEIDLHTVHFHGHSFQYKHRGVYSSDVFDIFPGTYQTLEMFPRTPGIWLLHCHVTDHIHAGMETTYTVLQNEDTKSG
- ASSAY: competition ELISA on coated CP, biotinylated probe; competitor: CP-pAb
Provide the reported probe binding, % of diluent control of each item.
// units = %; emit number, no label

Recorded probe binding, % of diluent control of anti-CP mAb A (antibody, V domains shown, Recombinant full-length rabbit IgG from HEK-293; tested as conditioned medium, Protein A-purified and biotinylated) VH: QSLEESGGDLVKPGASLTLTCKASGFDLSRFYYMCWVRQAPGKGLEWIACIYAGRTGNTYYASWAKGRFTISKTSSTTVTLQMTSLTAADTATYFCARASGDFLAYTYAMDLWGPGTLVTVSS VL: AAVLTQTPASVSAAVGGTVTISCQASQSVDNNNYLAWYQQKPGQPPKLLIYEASKLASGVPSRFSGSGSGTQFTLTISDVQCDDATTYYCAGGYSSSADANAFGGGTEVVVKG , please.
17

// query probe binding, % of diluent control value for entry anti-CP mAb C (antibody, V domains shown, Recombinant full-length rabbit IgG from HEK-293; also called mAb2) VH: QSVEESGGRLVTPGTPLTLTCTASGFSLSRYYMSWVRQAPGKGLEWIGMIYPSSGSTWYASWVKGRFTISATATSVDLKITSPTTEDTATYFCVRDRYPGYNGDSFNLWGQGTLVTVSS VL: AQVLTQTASPVSAAVGSTVTINCQASQSVYNNNYLAWFQQKPGQPPKRLIYQASKLAIGVPSRFSGSGSGTQFTLTISDVQCDDAATYYCLGSYGCNSVDCNVFGGGTEVVVKG
3

Give the measured probe binding, % of diluent control of anti-CP mAb D (antibody, V domains shown, Recombinant full-length rabbit IgG from HEK-293; tested as conditioned medium, Protein A-purified and biotinylated) VH: QEQLVESGGGLVQPEGSLTLTCKASGFDFSSYWMCWVRQAPGKRPEWIACIYGGDGTSYFAGWAKGRFTISKTSSTTVTLQMTSLTAADTATYFCARADYYVYVDGGYGHAYDLWGPGTLVTVSS VL: DIVMTQTPASVEAAVGGSVTIKCQASDDIYSYLAWYQQKPGQPPKLLIFDASSLPSGVPSRFKGSGSGTQFTLTISGVQCADAATYYCQNYYGSSSSVHAFGGGTEVVVKG .
10
